A collection of compounds and their measured minimum inhibitory concentration
System: Escherichia coli
Experiment: minimum inhibitory concentration (MIC)
Settings: isolate (source animal id): 125

Solved entries:
CC[C@H]1OC(=O)C[C@@H](O)[C@H](C)[C@@H](O[C@@H]2O[C@H](C)[C@@H](O[C@H]3C[C@@](C)(O)[C@@H](O)[C@H](C)O3)[C@H](N(C)C)[C@H]2O)[C@@H](CC=O)C[C@@H](C)C(=O)/C=C/C(C)=C/[C@@H]1CO[C@@H]1O[C@H](C)[C@@H](O)[C@@H](OC)[C@H]1OC [Tylosin]: > 32 µg/mL
COc1cc(NS(=O)(=O)c2ccc(N)cc2)nc(OC)n1 [sulfadimethoxine]: > 256 µg/mL
CC[C@H]1OC(=O)C[C@@H](O)[C@H](C)[C@@H](O[C@@H]2O[C@H](C)[C@@H](O)[C@H](N(C)C)[C@H]2O)[C@@H](CCN2C[C@H](C)C[C@H](C)C2)C[C@@H](C)C(=O)/C=C/C(C)=C/[C@@H]1CO[C@@H]1O[C@H](C)[C@@H](O)[C@@H](OC)[C@H]1OC [Tilmicosin]: 16 µg/mL

Recorded result, COc1cc(Cc2cnc(N)nc2N)cc(OC)c1OC.Cc1cc(NS(=O)(=O)c2ccc(N)cc2)no1 [trimethoprim-sulfamethoxazole] , minimum inhibitory concentration: ≤ 2 µg/mL

Recorded result, CN(C)[C@@H]1C(O)=C(C(N)=O)C(=O)[C@@]2(O)C(O)=C3C(=O)c4c(O)cccc4[C@@](C)(O)[C@H]3C[C@@H]12 [Tetracycline] , minimum inhibitory concentration: > 8 µg/mL
